pKi: −log10 of the molar value. Counter-ions that a name gives are not always drawn.
A short record of pKi observed with 5-HT5A (Homo sapiens, UniProt P47898) follows.
Sequence (P47898 whole entry): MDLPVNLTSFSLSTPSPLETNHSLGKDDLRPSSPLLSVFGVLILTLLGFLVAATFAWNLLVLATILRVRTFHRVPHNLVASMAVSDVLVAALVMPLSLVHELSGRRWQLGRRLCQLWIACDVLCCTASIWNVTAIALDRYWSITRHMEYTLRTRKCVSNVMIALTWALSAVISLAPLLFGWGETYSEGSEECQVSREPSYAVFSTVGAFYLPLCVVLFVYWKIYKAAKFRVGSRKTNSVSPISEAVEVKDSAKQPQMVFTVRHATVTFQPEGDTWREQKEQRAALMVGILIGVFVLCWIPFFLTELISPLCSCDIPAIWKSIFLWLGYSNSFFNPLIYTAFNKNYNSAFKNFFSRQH

Please review the following examples before continuing.
* COc1ccccc1Cc1cc2cc(N3CCN(C)CC3)ccc2nc1N [Example 48, bisfumarate] | > 6.52
* COc1cccc(OC)c1CN1Cc2cc(Cl)ccc2N=C1N [Example 89] | > 6.52
* COc1cccc(OC)c1Cc1cc2cccc(OC)c2nc1N [Example 52, hydrochloride] | > 6.52
* COc1cccc(OC)c1Cc1cc2cccnc2nc1N [Example 21] | > 5.00
* COc1cccc(F)c1Cc1cc2cc(N3CCOCC3)ccc2nc1N [Example 45] | > 6.52

Kindly consider the entry below.
Quick one: pKi for CN(C)CCOc1cccc(F)c1Cc1cc2ccccc2nc1N [Example 60, bishydrochloride] ?
> 6.52
